Where do these numbers come from? They come from ChEMBL document CHEMBL4219138.

molecular target: Epidermal growth factor receptor (Homo sapiens, UniProt P00533, L858R/T790M); experiment: Inhibition of recombinant human GST-tagged EGFR L858R/T790M mutant cytoplasmic domain (668 to 1210 residues) expressed in baculovirus expression system using tyrosine04 peptide as substrate after 60 mins in presence of ATP by Z-LYTE assay
Sequence (P00533 25-1210 T790M/L858R limits assumed): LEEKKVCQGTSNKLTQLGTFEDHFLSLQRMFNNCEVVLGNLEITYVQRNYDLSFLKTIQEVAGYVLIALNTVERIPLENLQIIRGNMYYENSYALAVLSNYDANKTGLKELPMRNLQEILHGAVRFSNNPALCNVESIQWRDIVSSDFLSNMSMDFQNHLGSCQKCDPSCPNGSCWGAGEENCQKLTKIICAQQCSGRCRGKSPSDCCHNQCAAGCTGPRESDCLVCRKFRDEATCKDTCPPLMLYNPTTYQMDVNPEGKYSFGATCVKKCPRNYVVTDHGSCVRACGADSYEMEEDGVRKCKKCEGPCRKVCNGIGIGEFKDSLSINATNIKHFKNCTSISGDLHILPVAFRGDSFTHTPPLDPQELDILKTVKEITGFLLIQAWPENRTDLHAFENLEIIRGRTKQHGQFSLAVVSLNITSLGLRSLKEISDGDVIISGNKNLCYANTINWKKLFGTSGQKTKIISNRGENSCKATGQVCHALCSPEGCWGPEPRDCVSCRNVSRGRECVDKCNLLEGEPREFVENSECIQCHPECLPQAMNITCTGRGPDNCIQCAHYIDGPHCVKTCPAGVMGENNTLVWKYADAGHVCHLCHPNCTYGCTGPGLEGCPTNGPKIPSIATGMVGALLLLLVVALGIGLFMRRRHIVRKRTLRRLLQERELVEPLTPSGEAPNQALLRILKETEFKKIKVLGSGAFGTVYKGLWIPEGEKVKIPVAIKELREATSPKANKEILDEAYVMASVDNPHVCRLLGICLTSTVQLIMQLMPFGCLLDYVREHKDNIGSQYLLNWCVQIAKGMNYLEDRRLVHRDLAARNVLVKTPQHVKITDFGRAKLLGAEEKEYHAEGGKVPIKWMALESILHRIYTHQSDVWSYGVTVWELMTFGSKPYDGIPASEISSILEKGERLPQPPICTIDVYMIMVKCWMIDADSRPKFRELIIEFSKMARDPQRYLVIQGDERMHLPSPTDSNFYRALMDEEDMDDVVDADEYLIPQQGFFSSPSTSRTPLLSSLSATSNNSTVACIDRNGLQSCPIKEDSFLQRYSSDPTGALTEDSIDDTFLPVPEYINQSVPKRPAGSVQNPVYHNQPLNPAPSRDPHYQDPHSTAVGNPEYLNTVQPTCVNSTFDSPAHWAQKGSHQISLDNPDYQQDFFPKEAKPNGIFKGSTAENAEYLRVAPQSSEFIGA
Quick rule for you: IC50 under 40 nM gets Y, anything else gets N.

{"columns": ["molecule", "assigned label"],
 "data": [
  ["C=CC(=O)Nc1cccc(NC(=O)Nc2ccnc(Nc3ccc(C4CCN(C)CC4)cc3)n2)c1", "N"]
]}

Threshold test, IC50 < 40 nM: `C=CC(=O)Nc1cccc(NC(=O)Nc2ccnc(Nc3ccc(C(=O)N4CCN(C)CC4)cc3OC)n2)c1`
N

Answer whether the molecule `C=CC(=O)Nc1cccc(NC(=O)Nc2ccnc(Nc3ccccc3OC)n2)c1` has IC50 strictly less than 40 nM
N

Does `C=CC(=O)Nc1cccc(NC(=O)Nc2ccnc(Nc3ccc(N(C)C)cc3)n2)c1` have IC50 strictly under 40 nM?
N

Lab note: IC50 threshold 40 nM. Does this molecule come in strictly under it? `C=CC(=O)Nc1cccc(NC(=O)Nc2ccnc(Nc3ccc(OC)cc3OC)n2)c1`
N

Quick check: does `C=CC(=O)Nc1cccc(NC(=O)Nc2ccnc(Nc3ccc(N4CCOCC4)cc3OC)n2)c1` have IC50 under 40 nM?
Y

Find out if reported IC50 for `C=CC(=O)Nc1cccc(NC(=O)Nc2ccnc(Nc3ccc(N4CCC(N5CCOCC5)CC4)cc3OC)n2)c1` is less than 40 nM
Y

Input `C=CC(=O)Nc1cccc(NC(=O)Nc2ccnc(Nc3ccc(N4CCN(CCF)CC4)cc3OC)n2)c1` ; condition: IC50 strictly below 40 nM. Does it hold?
Y

Consider `C=CC(=O)Nc1cccc(NC(=O)Nc2ccnc(Nc3ccc(C4CCN(C)CC4)cc3OC)n2)c1` . Does its IC50 lie strictly below 40 nM?
Y

Bench note: check whether `C=CC(=O)Nc1cccc(NC(=O)Nc2nc(Nc3ccc(N4CCC(N5CCOCC5)CC4)cc3OC)ncc2Cl)c1` shows IC50 below 40 nM
Y

Consider the molecule `C=CC(=O)Nc1cccc(NC(=O)Nc2ccnc(Nc3ccc(N(CC)CC)cc3OC)n2)c1` . Is its IC50 strictly less than 40 nM?
Y

Determine if `C=CC(=O)Nc1cccc(NC(=O)Nc2nc(Nc3ccc(N4CCC(N5CCOCC5)CC4)cc3OC)ncc2C(F)(F)F)c1` shows IC50 strictly lower than 40 nM.
N

is_below(IC50, 40 nM) for `C=CC(=O)Nc1cccc(NC(=O)Nc2ccnc(Nc3ccc(C(=O)N4CCOCC4)cc3OC)n2)c1` ?
N

hey, is IC50 for `C=CC(=O)Nc1cccc(NC(=O)Nc2ccnc(Nc3ccc(OCCOC)cc3)n2)c1` lower than 40 nM or not?
N

Determine whether this molecule shows IC50 lower than 40 nM (ties excluded): `C=CC(=O)Nc1cccc(NC(=O)Nc2ccnc(Nc3ccc(N4CCN(C)CC4)cc3)n2)c1`
N

Could you please tell me whether IC50 recorded for `C=CC(=O)Nc1cccc(Oc2nc(Nc3ccc(N4CCN(C(C)=O)CC4)cc3OC)ncc2C(F)(F)F)c1` is less than 40 nM?
Y

Does `C=CC(=O)Nc1cccc(NC(=O)Nc2ccnc(Nc3ccc(N4CCC(N(C)C)CC4)cc3OC)n2)c1` have IC50 strictly under 40 nM?
Y

Confirm or reject: IC50 of C=CC(=O)NC1CCCN(C(=O)Nc2ccnc(Nc3ccc(N4CCN(C)CC4)cc3OC)n2)C1 (stereo not drawn) lies strictly below 40 nM
N
